System: Dissociated VM cells
Experiment summary: Neuroprotection Assay (NMDA-induced neuroexcitotoxic injury, high affinity 3H-dopamine uptake)
Type: cell-based, Sprague-Dawley rat
Condition notes: embryonic day 15 rat ventral mesencephalic cultures, NMDA (100-400 µM) for 20 hours
Structures can show the parent of a compound that is named as a salt.
Measured attribute: EC50

Check out these entries, answers already filled in.
CCN1CCCC[C@H]1C(=O)N1CCN(C(=O)c2ccc(F)cc2)CC1 [Compound 79, hydrochloride]; 100 to 500 nM
CCN1CCCC[C@H]1C(=O)N1CCN(Cc2ccc(F)c(F)c2)CC1 [Compound 77]; 100 to 500 nM
O=C(C1CCN(Cc2ccc(F)cc2)CC1)N1CCC(Cc2ccc(F)cc2)CC1 [Compound 257]; 100 to 500 nM
CCN1CCCC[C@H]1CN1CCC(Cc2ccccc2)CC1 [Compound 101]; < 100 nM
CCN1CCCC[C@H]1C(=O)N1CCN(Cc2ccc(OC)cc2)CC1 [Compound 75]; > 500 nM

response.value for CN1CCC=C(C(=O)N2CCC(Cc3ccc(F)cc3)CC2)C1 [Compound 89, hydrochloride] (field: EC50) = 100 to 500 nM

response.value for CCN1CCCC[C@H]1C(=O)N1CCN(C(c2ccccc2)c2ccccc2)CC1 [Compound 1] (field: EC50) = < 100 nM

response.value for CCN1CCCC[C@@H]1C(=O)N1CCN(C(c2ccccc2)c2ccccc2)CC1 [Compound 15] (field: EC50) = < 100 nM

Sourced from patent EP1257544B1
